Test: 39-week oral (gavage) toxicity/toxicokinetic study with 13-week treatment-free recovery period in cynomolgus monkeys
Type: in vivo, cynomolgus monkeys (Macaca fascicularis)
Conditions: female, cynomolgus monkey, plasma, po, 20 mg/kg/day, Day 1; 20 mg/kg/d; females; mean (SD); read-out: t ½ (elimination half‐life) (converted)
quantity kind: half-life

# half-life (molecule: CCOC(=O)N1c2ccc(C(F)(F)F)cc2C(N(Cc2cc(C(F)(F)F)cc(C(F)(F)F)c2)c2ncc(OCCCC(=O)O)cn2)CC1CC (stereo not shown) ) is 5.8 h

====

Assay: 39-week oral (gavage) toxicity/toxicokinetic study with 13-week treatment-free recovery period in cynomolgus monkeys
Type: in vivo, cynomolgus monkeys (Macaca fascicularis)
Settings: female, cynomolgus monkey, plasma, po, 50 mg/kg/day; Day 1; 50 mg/kg/d; females; mean
quantity kind: Cmax (µg/mL)
Report the value in µg/mL with no unit label.

Measured Cmax, CCOC(=O)N1c2ccc(C(F)(F)F)cc2C(N(Cc2cc(C(F)(F)F)cc(C(F)(F)F)c2)c2ncc(OCCCC(=O)O)cn2)CC1CC (stereo not shown) : 11.6

====

Test: 39-week oral (gavage) toxicity/toxicokinetic study with 13-week treatment-free recovery period in cynomolgus monkeys
Assay type: in vivo, cynomolgus monkeys (Macaca fascicularis)
Conditions: female, cynomolgus monkey, plasma, po, 50 mg/kg/day; Day 1; 50 mg/kg/d; females; mean; read-out: AUC(0–24) (converted)
quantity kind: AUC(0-t)
Output should be the measured figure followed by the unit it is expressed in.

AUC(0-t) for CCOC(=O)N1c2ccc(C(F)(F)F)cc2C(N(Cc2cc(C(F)(F)F)cc(C(F)(F)F)c2)c2ncc(OCCCC(=O)O)cn2)CC1CC (stereo not shown) is 118 µg·h/mL

====

Experiment: Phase I food effect trial on obicetrapib bioavailability (TA‐8995‐09)
Format: in vivo, humans
Conditions: both sexes, human, plasma, oral, 10 mg, 10 mg single dose; Fasted; n = 23
quantity kind: Cmax (ng/mL)
Output spec: scalar in ng/mL, unitless text.

Entry CCOC(=O)N1c2ccc(C(F)(F)F)cc2C(N(Cc2cc(C(F)(F)F)cc(C(F)(F)F)c2)c2ncc(OCCCC(=O)O)cn2)CC1CC (stereo not shown) — recorded Cmax = 140

====

Experiment: 39-week oral (gavage) toxicity/toxicokinetic study with 13-week treatment-free recovery period in cynomolgus monkeys
Type: in vivo, cynomolgus monkeys (Macaca fascicularis)
Settings: both sexes, cynomolgus monkey, plasma, po, Day 1; read-out: Apparent t 1/2 for the individual monkeys
quantity kind: half-life

The value of half-life measured for the molecule CCOC(=O)N1c2ccc(C(F)(F)F)cc2C(N(Cc2cc(C(F)(F)F)cc(C(F)(F)F)c2)c2ncc(OCCCC(=O)O)cn2)CC1CC (stereo not shown) turned out to be 4.8 to 10.5 h

====

Experiment: 39-week oral (gavage) toxicity/toxicokinetic study with 13-week treatment-free recovery period in cynomolgus monkeys
Type: in vivo, cynomolgus monkeys (Macaca fascicularis)
Conditions: female, cynomolgus monkey, plasma, po, 20 mg/kg/day, Day 1; 20 mg/kg/d; females; mean (SD)
quantity kind: t max (h)
Just the number in h, nothing appended.

Value of measured t max for the entry CCOC(=O)N1c2ccc(C(F)(F)F)cc2C(N(Cc2cc(C(F)(F)F)cc(C(F)(F)F)c2)c2ncc(OCCCC(=O)O)cn2)CC1CC (stereo not shown) : 4.8

====

Experiment: Phase I food effect trial on obicetrapib bioavailability (TA‐8995‐09)
Type: in vivo, humans
Conditions: both sexes, human, plasma, oral, 10 mg, 10 mg single dose; Fasted; n = 23; read-out: AUC(0‐t), LS GM (converted)
quantity kind: AUC (ng·h/mL)
Hi! Could you send only the number? It should be in ng·h/mL, unit omitted.

What the record says about CCOC(=O)N1c2ccc(C(F)(F)F)cc2C(N(Cc2cc(C(F)(F)F)cc(C(F)(F)F)c2)c2ncc(OCCCC(=O)O)cn2)CC1CC (stereo not shown) [Obicetrapib] : AUC is 12400

====

Experiment: 39-week oral (gavage) toxicity/toxicokinetic study with 13-week treatment-free recovery period in cynomolgus monkeys
Format: in vivo, cynomolgus monkeys (Macaca fascicularis)
Settings: both sexes, cynomolgus monkey, plasma, po, Day 1; read-out: mean t 1/2, range over groups
quantity kind: half-life

# half-life of CCOC(=O)N1c2ccc(C(F)(F)F)cc2C(N(Cc2cc(C(F)(F)F)cc(C(F)(F)F)c2)c2ncc(OCCCC(=O)O)cn2)CC1CC (stereo not shown) [Obicetrapib] = 5.8 to 7.2 h

====

Test: TULIP Phase II trial, plasma concentrations of obicetrapib
Assay type: in vivo, humans
Conditions: both sexes, human, plasma, oral, 5 mg, Obicetrapib 5 mg; Week 20, eight weeks after the end of treatment; read-out: Mean (SD) Plasma Level
quantity kind: concentration at 20 weeks (ng/mL)
Your answer should be a plain number; it is taken to be in ng/mL.

For reference, reported concentration at 20 weeks for CCOC(=O)N1c2ccc(C(F)(F)F)cc2C(N(Cc2cc(C(F)(F)F)cc(C(F)(F)F)c2)c2ncc(OCCCC(=O)O)cn2)CC1CC (stereo not shown) [Obicetrapib] stands at 5.9

====

Test: 39-week oral (gavage) toxicity/toxicokinetic study with 13-week treatment-free recovery period in cynomolgus monkeys
Format: in vivo, cynomolgus monkeys (Macaca fascicularis)
Details: female, cynomolgus monkey, plasma, po, 20 mg/kg/day; Day 1; 20 mg/kg/d; females; mean
quantity kind: Cmax

Cmax measured on CCOC(=O)N1c2ccc(C(F)(F)F)cc2C(N(Cc2cc(C(F)(F)F)cc(C(F)(F)F)c2)c2ncc(OCCCC(=O)O)cn2)CC1CC (stereo not shown) = 4980 ng/mL

====

Assay: 39-week oral (gavage) toxicity/toxicokinetic study with 13-week treatment-free recovery period in cynomolgus monkeys
Type: in vivo, cynomolgus monkeys (Macaca fascicularis)
Conditions: male, cynomolgus monkey, plasma, po, 50 mg/kg/day; Day 1; 50 mg/kg/d; males; mean; read-out: AUC(0–24) (converted)
quantity kind: AUC(0-t)

What the record says about CCOC(=O)N1c2ccc(C(F)(F)F)cc2C(N(Cc2cc(C(F)(F)F)cc(C(F)(F)F)c2)c2ncc(OCCCC(=O)O)cn2)CC1CC (stereo not shown) : AUC(0-t) is 118 µg·h/mL

====

Test: ROSE Phase II trial, plasma concentrations of obicetrapib
Format: in vivo, humans
Conditions: both sexes, human, plasma, oral, Obicetrapib 5 mg + high‐intensity statin; Week 8 (EOT); read-out: Mean (SD) Plasma Level
Protocol: The PK parameters and the effect of food on the bioavailability of obicetrapib in humans have been examined in both Phase I[9] (TA‐8995‐09 CSR, NewAmsterdam Pharma) and Phase II trials.[10], [11], [12], [13] The trials were performed in accordance with the Declaration of Helsinki, Good Clinical Practice Guidelines, and applicable regulatory requirements. […] PK parameters were determined using WinNonlin software, version 4.1 or higher (Pharsight/Certara Corporation, USA). […]
quantity kind: concentration at 8 weeks (ng/mL)
Please respond with the number in ng/mL and leave the unit unwritten.

# concentration at 8 weeks (molecule: CCOC(=O)N1c2ccc(C(F)(F)F)cc2C(N(Cc2cc(C(F)(F)F)cc(C(F)(F)F)c2)c2ncc(OCCCC(=O)O)cn2)CC1CC (stereo not shown) [Obicetrapib] ) is 254

====

Test: TA‐8995‐203 Phase II trial in Japanese participants, plasma concentrations of obicetrapib
Assay type: in vivo, humans
Details: both sexes, human, plasma, oral, 2.5 mg, Obicetrapib 2.5 mg + stable statin therapy; Week 8 (EOT); Japanese participants; read-out: Mean (SD) Plasma Level
quantity kind: concentration at 8 weeks (ng/mL)
Your answer should be a plain number; it is taken to be in ng/mL.

Summary for this compound, CCOC(=O)N1c2ccc(C(F)(F)F)cc2C(N(Cc2cc(C(F)(F)F)cc(C(F)(F)F)c2)c2ncc(OCCCC(=O)O)cn2)CC1CC (stereo not shown) : concentration at 8 weeks is 194

====

Assay: Phase I food effect trial on obicetrapib bioavailability (TA‐8995‐09)
Assay type: in vivo, humans
Details: both sexes, human, plasma, oral, 10 mg, 10 mg single dose; Fed; n = 23; read-out: AUC(0‐∞), LS GM (converted)
quantity kind: AUC
Hey, just the number and the unit after it is fine.

Measured AUC, CCOC(=O)N1c2ccc(C(F)(F)F)cc2C(N(Cc2cc(C(F)(F)F)cc(C(F)(F)F)c2)c2ncc(OCCCC(=O)O)cn2)CC1CC (stereo not shown) : 25800 ng·h/mL

====

Assay: 39-week oral (gavage) toxicity/toxicokinetic study with 13-week treatment-free recovery period in cynomolgus monkeys
Format: in vivo, cynomolgus monkeys (Macaca fascicularis)
Conditions: female, cynomolgus monkey, plasma, po, 10 mg/kg/day; Day 1; 10 mg/kg/d; females; mean
Method: CETP is present and active in non‐human primates, rabbits, and hamsters, but is absent in most other animal species, including mice, rats, and dogs.[2], [31], [32] […] Individual body weights were recorded once weekly (including Day 1 before the start of dosing) from time of allocation and on the day of necropsy. […]
quantity kind: Cmax (ng/mL)
Numbers only; they are read as ng/mL.

So, CCOC(=O)N1c2ccc(C(F)(F)F)cc2C(N(Cc2cc(C(F)(F)F)cc(C(F)(F)F)c2)c2ncc(OCCCC(=O)O)cn2)CC1CC (stereo not shown) [Obicetrapib] ? Its Cmax was 3300
